system: barnyardgrass (Echinochloa crus-galli); assay: Test A postemergence, visual plant response rating; type: in vivo; settings: 500 g ai/ha, postemergence; 0 is no effect, 100 is complete control
Measurement name: Barnyardgrass plant response rating (0 to 100 scale)

>>> numeric_readout("CON=C(c1c(O)c(C)nn(C)c1=O)c1cccc2sccc12 [Compound 59]")
50
>>> numeric_readout("CON=C(c1cc(Cl)ccc1Cl)c1c(O)c(C)nn(C)c1=O [Compound 98]")
80
>>> numeric_readout("CON=C(c1cccc(C(F)(F)F)c1Cl)c1c(O)c(C)nn(C)c1=O [Compound 103]")
30
>>> numeric_readout("CO/N=C(/c1c(OC(C)=O)c(Cl)nn(C)c1=O)c1cccc2ccccc12 [Compound 132]")
60
